# test-protocol: Mycobacterium tuberculosis growth inhibition, primary screen (AID 1259343)
# measurement-parameters: at 10 µM, hits give high values
The whole screen tested about 6,200 compounds, of which about 2,900 (47%) were called active. So high a share suggests a set chosen from earlier hits. The list shows a part of the results.
Please note: Met applies when inhibition is 40% or greater, and Not met applies otherwise.

Solved cases (3 shown):
CCCCS(=O)(=O)NCCOc1ccc(C)cc1 : Met
O=C(Nc1nncs1)c1ccc(C2CCCCC2)cc1 : Met
CC(=O)Oc1ccc(N2C(=O)c3cccc4c([N+](=O)[O-])ccc(c34)C2=O)cc1 : Not met

Could you verify whether the entry "CC(C)(C)c1nc(CNC(=O)Cc2ccc(Cl)cc2)no1" shows inhibition of no less than 40%?
Not met

###

# test-protocol: Mycobacterium tuberculosis growth inhibition, primary screen (AID 1259343)
# measurement-parameters: at 10 µM
About 2,900 (47%) of roughly 6,200 compounds were called active. Rule as the data show it: active = inhibition above about 50%; inactive = the rest. The set was probably picked from earlier hits. Some of the results follow.
Mark one answer only. Choices: class 1 for active, class 0 for inactive

Tell me the recorded outcome of this test for "CN(Cc1ccc(C#N)cc1)C(=O)CCc1ccc(C(C)(C)C)cc1" .
class 1

Follow-up entry: "CC1=CC(=O)c2c(O)cccc2C1=O"
class 1

###

# test-protocol: Mycobacterium tuberculosis growth inhibition, primary screen (AID 1259343)
# measurement-parameters: at 10 µM, hits give high values
Hit rate of the full screen: of about 6,200 compounds, about 2,900 (47%) were called active. The set was probably picked from earlier hits. The list shows a part of the results.
measured-parameter: inhibition (%)
Answer with a number only, understood to be in %.

Examples with their reported inhibition follow.
COc1ccc(C(=O)C2CCCN(Cc3nc(-c4ccc(F)cc4)cs3)C2)c(OC)c1 (configuration not stated) : 31.3
Cc1ccc2ncn(Cc3nc(-c4ccc(C)c(F)c4)no3)c(=O)c2c1 : -6.02
CC(OC1CC(=O)CC2C(=O)c3ccccc3C(=O)C12)c1ccccc1 (configuration not stated) : 94.3
CCCn1nnnc1NCc1cccn1C : 1.45
Cc1cc(C(=O)N(CCCN(C)C)c2nc3ccc(Cl)cc3s2)nn1C : 30.6
Cc1nc(C(F)(F)F)ccc1C(=O)NC1CC2CC1C1CCCC21 (configuration not stated) : 32.9
CC(C)CN(CC(=O)Nc1nc(CC(=O)NCc2ccc(F)cc2)cs1)C(=O)c1ccc(Cl)cc1 : -3.41
CCC(=O)NC(=S)Nc1ccc(C(=O)NC(C)(C)C)cc1 : 37.3
O=C(CCl)NC(=O)NCc1cccs1 : -19.2
Cc1cc(C)cc(C(=O)C=C2NC(=O)CS2)c1 : -74.8

What value of inhibition has been reported for the following molecule? "COc1ccc(-n2nc3ccc(N)cc3n2)cc1"
-45

Follow-up entry: Cc1ccc(OCc2cc(C(=O)NC(C)c3nc(-c4ccccc4)no3)no2)cc1C (configuration not stated)
23

Follow-up entry: "CNC(=O)Cc1ccc(-c2cc(OC)ccc2F)cc1"
57.2

Follow-up entry: "CC(C)(C)OC(=O)N1CCc2cc(NC(=O)C(=O)NC3CC3)ccc21"
74.5

Follow-up entry: FC(F)(F)CN1CCC(NCc2ccc(-c3ccccc3Cl)s2)C1 (configuration not stated)
26.6

Follow-up entry: "CN1CCCc2cc(NC(=O)NCCC(=O)NC3CCCC3)ccc21"
0.23

Follow-up entry: "Nc1ncc(N=Nc2cccc(C(F)(F)F)c2)s1"
2.91

Follow-up entry: "O=S(=O)(Nc1ccc2c(c1)CCC2)c1ccc(F)cc1"
-4.64

Follow-up entry: "O=C(CCS(=O)(=O)c1ccccc1F)Nc1ccc(I)cc1"
80.2

Follow-up entry: "COc1ccc(CNS(=O)(=O)c2ccc3c(c2)CCCC3)cc1"
-18

Follow-up entry: "O=C(Nc1ccc(Oc2ccccc2F)cc1)C1CCN(C2Cc3ccccc3C2)CC1"
91.6

###

# test-protocol: Mycobacterium tuberculosis growth inhibition, primary screen (AID 1259343)
# measurement-parameters: at 10 µM
The campaign covered roughly 6,200 compounds. About 2,900 (47%) were called active. No stated cut-off is given here; in the data, active means inhibition above about 50%; inactive means the rest. So high a share suggests a set chosen from earlier hits. The list shows a part of the results.
Mark one answer only. Choices: y (active), n (inactive)

CCc1ccc(NC(=O)CCn2cnc3c([nH]c4ccccc43)c2=O)cc1 : y
CC(=O)CSc1ncnc2sc3c(c12)CCC(C)C3 (configuration not stated) : n
Cc1cc(C)c(Cn2ccnc2CN(C(=O)c2ccc(F)cc2)C2CC2)c(C)c1 : y
CN(C)c1ccc(-c2nc3c(C(=O)NNc4cccc(Cl)c4)cccc3[nH]2)cc1 : y
COc1ccc(-c2nc(C=CC(=O)N3CCCC4CCCCC43)cs2)cc1 (configuration not stated) : y

Tell me the recorded outcome of this test for "COc1cccc(NC(=O)N2CCC(Cc3ccc(F)cc3)CC2)c1" .
n

Follow-up entry: "O=C1c2ccccc2C(=O)c2c1oc1c3c(ccc21)OCN(C1CCCC1)C3"
y

Follow-up entry: "O=C1NC2(CCN(C(=O)Nc3ccc(C(F)(F)F)cc3)CC2)Nc2cc(Cl)ccc21"
n

Follow-up entry: "Cn1c(=O)c2c(ncn2CCOC(=O)c2cc(=O)[nH]c3ccccc23)n(C)c1=O"
n

Follow-up entry: "O=C(NC1CCN(c2ccccc2C(=O)NCc2ccc(F)cc2)CC1)c1ccc(C(F)(F)F)cc1"
n

Follow-up entry: "O=C(Nc1ccc(F)cc1F)N1CCC(Cc2ccc(C(F)(F)F)cc2)CC1"
y

Follow-up entry: "CCCCNC(=O)c1c(O)nc2sccn2c1=O"
n

Follow-up entry: Cc1ccc(-c2cc(C(=O)N3CCCC3C3CCCC3)n[nH]2)s1 (configuration not stated)
n

###

Examples of compounds with documented inhibition follow.
# test-protocol: Mycobacterium tuberculosis growth inhibition, primary screen (AID 1259343)
# measurement-parameters: at 10 µM, hits give high values
In all, about 6,200 compounds went through this assay and about 2,900 (47%) were called active. The set was probably picked from earlier hits. Some of the results follow.
Answer with a number only, understood to be in %.

O=C1c2ccccc2-c2nc3nonc3nc21 : 103

What value of inhibition has been reported for the following compound? CC(NC(=O)c1ccc(Br)o1)c1ccc(Cl)s1 (configuration not stated)
-46.6

Follow-up entry: "Cc1ccc(CNc2ncnc3[nH]ncc23)o1"
99.6

Follow-up entry: "COc1ccccc1-c1cc(=O)c2cccc(OC)c2o1"
-0.59

###

# test-protocol: Mycobacterium tuberculosis growth inhibition, primary screen (AID 1259343)
# measurement-parameters: at 10 µM, hits give high values
Among all 6,200 compounds or so, about 2,900 (47%) were called active. So high a share suggests a set chosen from earlier hits. The list shows a part of the results.
measured-parameter: inhibition (%)
Answer with a number only, understood to be in %.

Examples with their reported inhibition follow.
O=C(CCl)N1N=C(c2cccs2)CC1c1ccco1 (centres undefined) : 101
COc1ccc(OCCCCOc2ccccc2F)cc1 : 57.2
O=C(Nc1ncccc1OC(F)F)c1cncc(Br)c1 : 89.3
CC(C)C(=O)Nc1ccc(OCC(F)(F)F)c(C#N)c1 : -16.8
CN(Cc1cccc(C(F)(F)F)c1)C(=O)c1cn(Cc2ccccc2Cl)nn1 : 20.9

What value of inhibition has been reported for the following compound? CS(=O)c1c(Cl)cccc1NC(=O)N1CCN(c2ncc(Cl)cc2Cl)CC1 (centres undefined)
-25.6

Follow-up entry: "Cc1ccc(NC(=O)N(C)Cc2cccc(F)c2)c(Cl)c1"
9.23

Follow-up entry: "CCOc1ccccc1OCCOc1ccccc1F"
88.9

###

# test-protocol: Mycobacterium tuberculosis growth inhibition, primary screen (AID 1259343)
# measurement-parameters: at 10 µM, hits give high values
Out of some 6,200 compounds screened, about 2,900 (47%) were called active. The set was probably picked from earlier hits. The list shows a part of the results.
Examples of compounds with documented inhibition follow.
Answer with a number only, understood to be in %.

Examples with their reported inhibition follow.
Clc1ccccc1CSCc1csc(Cc2ccc3c(c2)OCO3)n1 : 11.8
Oc1c(C(c2ccc(Br)cc2)N2CCCC2)cc(Cl)c2cccnc12 (stereo not drawn) : 10.6
Cc1cc(-c2nnn(CC3(O)CCCCC3)n2)ccc1F : 86.8
CCc1c(C)nc(-n2nc(C)cc2NC(=O)c2cccc([N+](=O)[O-])c2C)[nH]c1=O : 102
c1cc(NC2CCCCCCC2)cc(-c2cnco2)c1 : 71.3
Cc1sc2nc(-c3cccnc3)nc(NC(C)C(C)C)c2c1C (stereo not drawn) : -13.7
Cc1cc(CC(=O)NC2CC2c2ccc(Br)cc2)no1 (stereo not drawn) : 13.2
O=C(NCCO)c1ccc(OCc2ccc(Cl)s2)cc1 : -5.18

What value of inhibition has been reported for the following compound? "CCOc1ccc(OCCCCOc2ccccc2C(C)=O)cc1"
98

Follow-up entry: "CN(Cc1ccco1)C(=O)c1cnc(-c2ccc3c(c2)OCO3)nc1Nc1ccccc1"
47.5

Follow-up entry: "CCOc1cccc(OCCCOc2ccccc2C(C)=O)c1"
92.5

Follow-up entry: "c1cc(NC2CCCCCCC2)cc(-n2ccnc2)c1"
56

Follow-up entry: "COC(=O)c1ccc(CSc2ncnc3c2nnn3Cc2ccccc2)o1"
26.9
